Assay: Half life in monkey plasma at 1 mg/kg, iv measured up to 24 hrs by LC-MS/MS analysis
Assay type: ADME, organism-based, Macaca mulatta
Conditions: rhesus monkey
Metric: half-life (min)
Please respond with the number in min and leave the unit unwritten.

What half-life value was documented for this molecule, CC(C)(C)c1cc(NC(=O)Nc2ccc(C#Cc3ccc(OCCCN4CCOCC4)cc3)cc2)no1 ?
786

* * *

Experiment: Cmax in mouse plasma at 2 mg/kg, iv measured up to 24 hrs by LC-MS/MS analysis
Format: ADME, organism-based
Metric: Cmax (ng/mL)
Report only the number, with the unit ng/mL understood.

Dear colleague, I am looking for the recorded Cmax of the following compound: CC(C)(C)c1cc(NC(=O)Nc2ccc(C#Cc3ccc(OCCCN4CCOCC4)cc3)cc2)no1
1820

* * *

Assay: Clearance in monkey plasma at 1 mg/kg, iv measured up to 24 hrs by LC-MS/MS analysis
Format: ADME, organism-based, Macaca mulatta
Conditions: rhesus monkey
Metric: clearance (mL/min/kg)
Quick reminder: number only, in mL/min/kg, skip the unit.

Form field: reported clearance of CC(C)(C)c1cc(NC(=O)Nc2ccc(C#Cc3ccc(OCCCN4CCOCC4)cc3)cc2)no1
1.35

* * *

Target: Discoidin domain-containing receptor 2 (Homo sapiens, UniProt Q16832, T654M)
Sequence (Q16832 22-855 T654M limits assumed): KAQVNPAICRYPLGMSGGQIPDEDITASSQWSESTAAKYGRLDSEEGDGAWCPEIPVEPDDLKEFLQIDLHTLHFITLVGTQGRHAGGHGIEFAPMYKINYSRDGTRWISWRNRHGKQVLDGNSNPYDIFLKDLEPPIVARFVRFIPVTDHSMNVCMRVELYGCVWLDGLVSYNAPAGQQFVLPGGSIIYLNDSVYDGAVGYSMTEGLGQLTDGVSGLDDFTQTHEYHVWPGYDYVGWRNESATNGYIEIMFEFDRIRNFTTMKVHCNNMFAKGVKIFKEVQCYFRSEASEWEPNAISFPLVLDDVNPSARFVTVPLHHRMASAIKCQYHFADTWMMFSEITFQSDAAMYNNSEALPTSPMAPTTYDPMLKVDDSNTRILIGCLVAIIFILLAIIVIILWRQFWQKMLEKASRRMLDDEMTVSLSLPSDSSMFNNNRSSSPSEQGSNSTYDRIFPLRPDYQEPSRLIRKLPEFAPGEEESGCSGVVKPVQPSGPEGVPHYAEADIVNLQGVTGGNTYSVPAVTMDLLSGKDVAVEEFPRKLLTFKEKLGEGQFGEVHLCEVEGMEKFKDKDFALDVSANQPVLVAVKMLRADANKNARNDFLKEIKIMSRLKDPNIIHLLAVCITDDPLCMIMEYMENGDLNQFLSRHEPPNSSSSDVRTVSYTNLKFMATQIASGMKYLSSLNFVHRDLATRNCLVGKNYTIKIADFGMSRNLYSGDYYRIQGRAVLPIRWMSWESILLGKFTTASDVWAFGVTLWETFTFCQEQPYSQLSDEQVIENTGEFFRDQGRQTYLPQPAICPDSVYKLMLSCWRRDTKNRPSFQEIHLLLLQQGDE
Assay: Inhibition of human DDR2 T654M mutant by biochemical kinase binding assay
Metric: IC50 (nM)
Please state the figure in nM; there is no need to write the unit.

Value wanted: IC50 (Discoidin domain-containing receptor 2 (Homo sapiens, UniProt Q16832, T654M)) of entry CC(C)(C)c1cc(NC(=O)Nc2ccc(C#Cc3ccc(OCCCN4CCOCC4)cc3)cc2)no1
422

* * *

Molecular target: Cytochrome P450 2C19 (Homo sapiens)
Sequence (P33261 whole entry): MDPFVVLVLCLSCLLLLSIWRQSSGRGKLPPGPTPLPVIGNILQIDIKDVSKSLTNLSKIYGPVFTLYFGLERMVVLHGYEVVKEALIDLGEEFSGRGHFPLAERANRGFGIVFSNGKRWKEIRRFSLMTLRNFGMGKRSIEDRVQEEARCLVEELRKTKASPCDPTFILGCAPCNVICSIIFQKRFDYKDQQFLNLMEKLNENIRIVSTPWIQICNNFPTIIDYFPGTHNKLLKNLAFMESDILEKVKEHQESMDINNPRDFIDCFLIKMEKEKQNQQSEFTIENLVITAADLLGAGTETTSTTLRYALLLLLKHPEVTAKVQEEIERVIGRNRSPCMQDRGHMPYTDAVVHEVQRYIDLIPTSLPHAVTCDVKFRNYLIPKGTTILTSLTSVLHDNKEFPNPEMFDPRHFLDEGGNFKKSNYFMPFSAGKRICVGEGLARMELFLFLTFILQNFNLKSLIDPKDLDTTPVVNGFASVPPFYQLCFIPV
Metric: IC50

Query for Cytochrome P450 2C19 (Homo sapiens): what IC50 does the record show for CC(C)(C)c1cc(NC(=O)Nc2ccc(C#Cc3ccc(OCCCN4CCOCC4)cc3)cc2)no1 ?
> 33.3 µM

* * *

Test: Tmax in NOD/SCID mouse plasma xenografted with human MV4-11 cells at 0.5 mg/kg, po measured up to 24 hrs by LC-MS/MS analysis
Type: ADME, organism-based
Metric: Tmax (h)
Give just the numeric value; h need not be written.

Requested read-out: Tmax. Entry: CC(C)(C)c1cc(NC(=O)Nc2ccc(C#Cc3ccc(OCCCN4CCOCC4)cc3)cc2)no1
1

* * *

Assay: Oral bioavailability in rat plasma at 5 mg/kg measured up to 24 hrs by LC-MS/MS analysis
Assay type: ADME, organism-based
Quick reference for bioavailability among some compounds
API: value field is a number in %; no unit string.

Data request, read-out bioavailability, for CC(C)(C)c1cc(NC(=O)Nc2ccc(-c3cn4c(n3)sc3cc(OCCN5CCOCC5)ccc34)cc2)no1
57.6

More entries:
Entry CN1CCN(CCOc2ccc(C#Cc3ccc(NC(=O)Nc4cc(C(C)(C)C)on4)cc3)cc2)CC1 has what bioavailability?
48.4

Look up bioavailability for this compound: CC(C)(C)c1cc(NC(=O)Nc2ccc(C#Cc3ccc(OCCCN4CCOCC4)cc3F)cc2)no1
69.3

Dear colleague, I am looking for the recorded bioavailability of the following compound: CN1CCN(CCCOc2ccc(C#Cc3ccc(NC(=O)Nc4cc(C(C)(C)C)on4)cc3)cc2)CC1
42

What value of measured bioavailability is listed for CC(C)(C)c1cc(NC(=O)Nc2ccc(C#Cc3ccc(OCCN4CCOCC4)cc3)cc2)no1 ?
49.2

Fill in the blank: the reported bioavailability of CC(C)(C)c1cc(NC(=O)Nc2ccc(C#Cc3ccc(OCCN4C[C@@H]5OCCO[C@@H]5C4)cc3)cc2)no1 is ____.
63.6

So what does the record say about bioavailability for CC(C)(C)c1cc(NC(=O)Nc2ccc(C#Cc3ccc(OCCCN4CCOCC4)cc3)cc2)no1 ?
67.9

Could you share which bioavailability value was measured for COc1cc(C#Cc2ccc(NC(=O)Nc3cc(C(C)(C)C)on3)cc2)ccc1OCCCN1CCOCC1 ?
40.8

* * *

Assay: Cmax in rat plasma at 5 mg/kg, po measured up to 24 hrs by LC-MS/MS analysis
Type: ADME, organism-based
// Cmax lookup, one value per entry
Respond numerically; units are ng/mL and should not be typed.

Requested read-out: Cmax. Entry: CC(C)(C)c1cc(NC(=O)Nc2ccc(C#Cc3ccc(OCCCN4CCOCC4)cc3F)cc2)no1
1370

Continuing:
Report Cmax for CC(C)(C)c1cc(NC(=O)Nc2ccc(C#Cc3ccc(OCCN4C[C@@H]5OCCO[C@@H]5C4)cc3)cc2)no1 please.
862

Quick one: Cmax of CC(C)(C)c1cc(NC(=O)Nc2ccc(-c3cn4c(n3)sc3cc(OCCN5CCOCC5)ccc34)cc2)no1 ?
741

Need Cmax of CN1CCN(CCCOc2ccc(C#Cc3ccc(NC(=O)Nc4cc(C(C)(C)C)on4)cc3)cc2)CC1 , thanks.
100

If you can, please state the reported Cmax value of COc1cc(C#Cc2ccc(NC(=O)Nc3cc(C(C)(C)C)on3)cc2)ccc1OCCCN1CCOCC1 .
194

Please give the measured Cmax for this compound: CC(C)(C)c1cc(NC(=O)Nc2ccc(C#Cc3ccc(OCCCN4CCOCC4)cc3)cc2)no1
895

Look up Cmax for this compound: CN1CCN(CCOc2ccc(C#Cc3ccc(NC(=O)Nc4cc(C(C)(C)C)on4)cc3)cc2)CC1
133

Fill in the blank: the reported Cmax of CC(C)(C)c1cc(NC(=O)Nc2ccc(C#Cc3ccc(OCCN4CCOCC4)cc3)cc2)no1 is ____.
522

* * *

Assay: AUC (0 to t) in NOD/SCID mouse plasma xenografted with human MV4-11 cells at 0.5 mg/kg, po measured up to 24 hrs by LC-MS/MS analysis
Type: ADME, organism-based
Metric: AUC(0-t) at 24 h (ng·h/mL)
Express it in ng·h/mL; write the number only.

Query: AUC(0-t) at 24 h; subject: CC(C)(C)c1cc(NC(=O)Nc2ccc(C#Cc3ccc(OCCCN4CCOCC4)cc3)cc2)no1
58.9

* * *

Molecular target: UniProt P10632
Sequence (P10632 whole entry): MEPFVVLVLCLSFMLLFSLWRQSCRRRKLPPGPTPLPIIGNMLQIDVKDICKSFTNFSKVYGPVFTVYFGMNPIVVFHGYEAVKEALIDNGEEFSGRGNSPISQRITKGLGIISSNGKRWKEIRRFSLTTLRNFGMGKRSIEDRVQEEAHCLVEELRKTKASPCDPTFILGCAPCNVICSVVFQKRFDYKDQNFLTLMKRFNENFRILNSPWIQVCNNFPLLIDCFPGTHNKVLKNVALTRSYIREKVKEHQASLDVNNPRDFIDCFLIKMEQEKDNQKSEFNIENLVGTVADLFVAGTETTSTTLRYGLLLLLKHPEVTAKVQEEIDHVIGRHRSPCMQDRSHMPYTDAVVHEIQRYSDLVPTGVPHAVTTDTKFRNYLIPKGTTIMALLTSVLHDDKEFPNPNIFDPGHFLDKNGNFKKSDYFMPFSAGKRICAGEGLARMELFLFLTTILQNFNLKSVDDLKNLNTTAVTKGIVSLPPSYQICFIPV
Metric: IC50

What IC50 value was documented for this molecule, CC(C)(C)c1cc(NC(=O)Nc2ccc(C#Cc3ccc(OCCCN4CCOCC4)cc3)cc2)no1 ?
> 33.3 µM

* * *

Test: Oral bioavailability in mouse plasma at 10 mg/kg measured up to 24 hrs by LC-MS/MS analysis
Assay type: ADME, organism-based
Metric: bioavailability (%)
The response must be a number in % with no trailing unit.

Which bioavailability value belongs to CC(C)(C)c1cc(NC(=O)Nc2ccc(C#Cc3ccc(OCCCN4CCOCC4)cc3)cc2)no1 ?
50.3

* * *

Assay: Half life in NOD/SCID mouse plasma xenografted with human MV4-11 cells at 4.5 mg/kg, po measured up to 24 hrs by LC-MS/MS analysis
Assay type: ADME, organism-based
Metric: half-life (h)
Give the value in h but do not write h after it.

// query half-life value for entry CC(C)(C)c1cc(NC(=O)Nc2ccc(C#Cc3ccc(OCCCN4CCOCC4)cc3)cc2)no1
3.82

* * *

Biological target: Proto-oncogene tyrosine-protein kinase receptor Ret (Homo sapiens, UniProt P07949)
Sequence (P07949 whole entry): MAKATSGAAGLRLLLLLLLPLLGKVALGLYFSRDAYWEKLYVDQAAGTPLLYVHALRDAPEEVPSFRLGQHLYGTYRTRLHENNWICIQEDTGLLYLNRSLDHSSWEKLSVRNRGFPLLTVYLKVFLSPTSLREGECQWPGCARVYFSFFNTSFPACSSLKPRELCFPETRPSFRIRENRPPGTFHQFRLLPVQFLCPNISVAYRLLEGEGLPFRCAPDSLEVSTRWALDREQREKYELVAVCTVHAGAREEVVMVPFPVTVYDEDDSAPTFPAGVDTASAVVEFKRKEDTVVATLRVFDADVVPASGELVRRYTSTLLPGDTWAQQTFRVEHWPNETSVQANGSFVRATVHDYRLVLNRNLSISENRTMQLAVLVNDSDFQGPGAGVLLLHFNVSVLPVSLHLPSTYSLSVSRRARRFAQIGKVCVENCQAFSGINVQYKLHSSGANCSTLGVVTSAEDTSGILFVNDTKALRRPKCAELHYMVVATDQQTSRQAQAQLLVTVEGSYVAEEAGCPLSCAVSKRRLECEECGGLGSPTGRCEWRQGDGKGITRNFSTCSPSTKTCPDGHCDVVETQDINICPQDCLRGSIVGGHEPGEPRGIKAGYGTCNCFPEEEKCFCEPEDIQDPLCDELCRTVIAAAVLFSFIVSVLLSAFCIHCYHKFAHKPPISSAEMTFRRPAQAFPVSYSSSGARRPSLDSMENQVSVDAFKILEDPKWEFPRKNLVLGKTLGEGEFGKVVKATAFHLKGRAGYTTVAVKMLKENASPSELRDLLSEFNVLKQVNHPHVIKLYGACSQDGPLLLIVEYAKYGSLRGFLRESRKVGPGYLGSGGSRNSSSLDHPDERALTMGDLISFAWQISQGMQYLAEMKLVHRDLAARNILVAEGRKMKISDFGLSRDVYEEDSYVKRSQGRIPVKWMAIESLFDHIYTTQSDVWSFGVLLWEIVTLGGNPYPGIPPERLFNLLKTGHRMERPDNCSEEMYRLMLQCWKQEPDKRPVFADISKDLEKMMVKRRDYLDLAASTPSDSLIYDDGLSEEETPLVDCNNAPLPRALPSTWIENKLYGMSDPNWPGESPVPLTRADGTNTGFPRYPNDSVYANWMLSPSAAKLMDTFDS
Metric: IC50

Please provide the recorded IC50 for CC(C)(C)c1cc(NC(=O)Nc2ccc(C#Cc3ccc(OCCCN4CCOCC4)cc3)cc2)no1 , tested on Proto-oncogene tyrosine-protein kinase receptor Ret (Homo sapiens, UniProt P07949).
110 nM

* * *

Tested on: SW-620
Assay: cells
Conditions: Homo sapiens, SW-620, 72 h
Description: Antiproliferative activity against human SW620 cells assessed as inhibition of cell growth incubated for 72 hrs by celltiter-glo luminescent cell viability assay
pIC50: −log10 of the molar value.
Metric: pIC50

What does the record list as pIC50 for CC(C)(C)c1cc(NC(=O)Nc2ccc(C#Cc3ccc(OCCCN4CCOCC4)cc3)cc2)no1 ?
< 5.00

* * *

Assay: Cmax in dog plasma at 5 mg/kg, po measured up to 24 hrs by LC-MS/MS analysis
Format: ADME, organism-based, Canis lupus familiaris
Metric: Cmax (ng/mL)
Please respond with the number in ng/mL and leave the unit unwritten.

For the molecule shown here, CC(C)(C)c1cc(NC(=O)Nc2ccc(C#Cc3ccc(OCCCN4CCOCC4)cc3)cc2)no1 , give the reported Cmax.
520

Cited source for all entries: ChEMBL document CHEMBL6134864
